- Tested on: Enterobacter cloacae
- CONDITION SUMMARY: Enterobacter cloacae FADDI-EC003; broth microdilution in CAMHB
Positions of bridges follow the written chain, without caps; N, C: chain ends. Non-standard residues stand in square brackets, D forms with d. Residues, ends and D or L forms follow the SMILES beside them. *: point of attachment. Benzoyl(3,5-Cl2) = O=C(c1cc(Cl)cc(Cl)c1)*; Benzoyl(2,3-Cl2) = O=C(c1cccc(Cl)c1Cl)*; X23 = O=C(c1c(Cl)cc(Cl)cc1Cl)*; X4 = O=C(c1ccc(Cl)c(Cl)c1)*; Dab = NCC[C@H](N)C(=O)O; Abu = CC[C@H](N)C(=O)O; Dap = NC[C@H](N)C(=O)O; PhAc = O=C(Cc1ccccc1)*
compounds and their reported Minimum inhibitory concentration, Ec FADDI-EC003
Return type: number; implicit unit µg/mL.

Worked cases, answers included:
- CC[C@@H]1NC(=O)[C@@H](CC(C)C)NC(=O)[C@H](CCN)NC(=O)[C@@H](NC(=O)[C@H](CN)NC(=O)[C@@H](NC(=O)[C@H](CCN)NC(=O)c2c(Cl)cc(Cl)cc2Cl)[C@@H](C)O)CCNC(=O)[C@H]([C@@H](C)O)NC(=O)[C@H](CCN)NC(=O)[C@H](CCN)NC1=O [Compound 95] (X23-[Dab]T[Dap][Dab][Dab][dL][Abu][Dab][Dab]T; lactam 4-C): 0.25
- CC[C@@H]1NC(=O)[C@@H](CC(C)C)NC(=O)[C@H](CCN)NC(=O)[C@@H](NC(=O)[C@H](CN)NC(=O)[C@@H](NC(=O)[C@H](CCN)NC(=O)c2cccc(Cl)c2Cl)[C@@H](C)O)CCNC(=O)[C@H]([C@@H](C)O)NC(=O)[C@H](CCN)NC(=O)[C@H](CCN)NC1=O [Compound 90] ({Benzoyl(2,3-Cl2)}-[Dab]T[Dap][Dab][Dab][dL][Abu][Dab][Dab]T; lactam 4-C): 8
- CC[C@@H]1NC(=O)[C@@H](CC(C)C)NC(=O)[C@H](CCN)NC(=O)[C@@H](NC(=O)[C@H](CN)NC(=O)[C@@H](NC(=O)[C@H](CCN)NC(=O)c2ccc(Cl)c(Cl)c2)[C@@H](C)O)CCNC(=O)[C@H]([C@@H](C)O)NC(=O)[C@H](CCN)NC(=O)[C@H](CCN)NC1=O [Compound 71] (X4-[Dab]T[Dap][Dab][Dab][dL][Abu][Dab][Dab]T; lactam 4-C): 0.25
- CC(C)C[C@H]1NC(=O)[C@H](CCN)NC(=O)[C@@H](NC(=O)[C@H](CCN)NC(=O)[C@@H](NC(=O)[C@H](CCN)NC(=O)Cc2ccccc2)[C@@H](C)O)CCNC(=O)[C@H]([C@@H](C)O)NC(=O)[C@H](CCN)NC(=O)[C@H](CCN)NC(=O)[C@H]([C@@H](C)O)NC1=O [Compound 30] (PhAc-[Dab]T[Dab][Dab][Dab][dL]T[Dab][Dab]T; lactam 4-C): 2
- CC(C)C[C@H]1NC(=O)[C@H](CCN)NC(=O)[C@@H](NC(=O)[C@H](CN)NC(=O)[C@@H](NC(=O)[C@H](CCN)NC(=O)c2cc(Cl)cc(Cl)c2)[C@@H](C)O)CCNC(=O)[C@H]([C@@H](C)O)NC(=O)[C@H](CCN)NC(=O)[C@H](CCN)NC(=O)[C@H](C)NC1=O [Compound 117] ({Benzoyl(3,5-Cl2)}-[Dab]T[Dap][Dab][Dab][dL]A[Dab][Dab]T; lactam 4-C): 0.25

## Task Given the entry CC[C@@H]1NC(=O)[C@@H](CC(C)C)NC(=O)[C@H](CCN)NC(=O)[C@@H](NC(=O)[C@H](CN)NC(=O)[C@@H](NC(=O)[C@H](CCN)NC(=O)Cc2ccccc2)[C@@H](C)O)CCNC(=O)[C@H]([C@@H](C)O)NC(=O)[C@H](CCN)NC(=O)[C@H](CCN)NC1=O [Compound 78] (PhAc-[Dab]T[Dap][Dab][Dab][dL][Abu][Dab][Dab]T; lactam 4-C) , report its measured Minimum inhibitory concentration, Ec FADDI-EC003.
## Result 0.25
